Recorded pIC50 for compounds tested on Coagulation factor X (Homo sapiens), drawn from a number of studies.
pIC50: −log10 of the molar value.
Reported Endpoint: pIC50

>>> result_number("CN1CCc2nc(C(=O)NC3CCN(C(=O)OC(C)(C)C)CC3NC(=O)c3cc4cc(Cl)ccc4[nH]3)sc2C1 (racemic)")
6.89
>>> result_number("CS(=O)(=O)Nc1c(CCC2CCCCC2)ccn(CC(=O)N[C@H]2CCCN(C(=N)N)C2O)c1=O (some centres not stated)")
5.60
>>> result_number("CCN(C)C(=O)[C@H]1CC[C@H](NC(=O)c2cc3cc(Cl)ccc3[nH]2)[C@H](NC(=O)c2nc3c(s2)CN(C)CC3)C1")
8.59
>>> result_number("CC(=N)N1CCC(Oc2ccc(OCc3nc4cc(C(=N)N)ccc4n3CC(=O)NC3CCCCC3)cc2)CC1")
7.40
>>> result_number("CC(O)Cc1cn2c(N3CCN(C(=O)CCS(=O)(=O)c4ccc5cc(Cl)ccc5c4)CC3)cccc2n1 (configuration not stated)")
7.74
>>> result_number("NS(=O)(=O)c1ccccc1-c1ccc(C(=O)Nc2ccc(-n3ccnc3)cc2C(=O)Nc2ccc(Br)cn2)cc1")
6.89
>>> result_number("O=C(Nc1ccc(Cl)cc1C(=O)Nc1ccc(Cl)cn1)c1ccc(CN2CCCC2=O)cc1")
6.26
>>> result_number("O=C(C1CCN(c2ccncc2)CC1)N1CC[C@@H](CNS(=O)(=O)/C=C/c2ccc(Br)s2)C1")
7.66
>>> result_number("Cc1cc(C(=O)Nc2ccc(C(=N)N3CCOCC3)cc2F)n(-c2cc3ccccc3cc2F)n1")
6.87
>>> result_number("CN(C(=O)[C@H](Cc1ccccc1)NC(=O)Cc1ccc(Cl)cc1)c1ccc(N2CCCCC2=O)cc1")
4.27
>>> result_number("CCOC(=O)[C@]1(C)CCC[C@@]2(C)[C@@H]3CC[C@@]4(C)C[C@]3(CC[C@@H]21)C/C4=N\\NC(=S)Nc1cccc2ccccc12")
6.02
>>> result_number("CCN(C)C(=N)c1ccc(C(=O)N2CCN(S(=O)(=O)c3cc4ccc(Cl)cc4s3)CC2)cc1")
7.05
>>> result_number("Cc1cc2cc(NC(=N/[C@H]3CCCCN(CC(=O)N4CCCC4)C3=O)/C(C#N)=C(\\O)OC(C)(C)C)ccc2o1")
7.24
>>> result_number("N=C(N)Nc1ccc(CNc2cnc3cc(C(=O)NCCO)ccn23)cc1")
4.29
>>> result_number("CC(C)C[C@H](NC(=O)NCc1ccc(Cl)c(Cl)c1)C(=O)N[C@@H](Cc1ccc(O)cc1)C(=O)N[C@@H](CCCNC(=N)N)C(=O)c1nccs1")
5.77

###

Recorded IC50 for compounds tested on Coagulation factor X (Homo sapiens, UniProt P00742), drawn from a number of studies.
Reported Endpoint: IC50 (µM)

>>> result_number("N=C(N)N1CCc2ccc(OCCC3(C(=O)O)CCN(c4ccncc4)CC3)cc2C1")
0.23
>>> result_number("N=C(N)NCCC[C@H](NC(=O)[C@H](Cc1cn(Cc2ccccc2)cn1)NC(=O)[C@@H](Cc1ccccc1)NS(=O)(=O)Cc1ccccc1)C(=O)c1nccs1")
2.4
>>> result_number("CC1(C)OC[C@@H]([C@]2(C)C=C3CC[C@@H]4[C@](C)(CO)C[C@@H](O)C[C@@]4(C)[C@@H]3CC2)O1")
7.2
>>> result_number("N=C(N)c1ccc2oc(C(Cc3ccc(O[C@H]4CCNC4)cc3)C(=O)O)cc2c1 (stereo partly drawn)")
45
>>> result_number("CCOC(=O)[C@]1(C)CCC[C@@]2(C)[C@@H]3CC[C@@]4(C)C[C@]3(CC[C@@H]21)C/C4=N\\NC(=S)Nc1ccc(OC)cc1OC")
33.6
>>> result_number("COc1ccc(NC(=O)c2ccc(N3CCCCC3=O)cc2)c(C(=O)Nc2cccc(F)c2)c1")
0.045
>>> result_number("CC(CCc1ccccc1)Nc1c(F)c(Oc2cccc(C(=N)N)c2)nc(Oc2ccccc2C(=O)O)c1F (stereo not drawn)")
55
>>> result_number("CC(=N)N1CCC(Oc2ccc(OCc3nc4cc(C(=N)N)ccc4n3CC(=O)N3CCCCC3)cc2)CC1")
3

###

Recorded pIC50 for molecules tested on Coagulation factor X (Homo sapiens, UniProt P00742), drawn from a number of studies.
pIC50: −log10 of the molar value.
Reported Endpoint: pIC50

>>> result_number("N=C(N)NCCCC(C=O)NC(=O)CNC(=O)[C@H](CCCNC(=N)N)NS(=O)(=O)CCc1ccccc1 (some centres not stated)")
7.55
>>> result_number("Cc1cc(C(=O)Nc2ccc(-c3ccccc3S(N)(=O)=O)cc2)n(-c2ccc3cc(O)ccc3c2)n1")
5.45
>>> result_number("CCN(CC)C(=O)c1cccc(-c2ccc3c(c2)C[C@H]2[C@H]3[C@@H](CCCCC(=N)N)C(=O)N2CCCCCc2ccccc2)c1")
4.59
>>> result_number("O=C(NC[C@@H]1OC(=O)N2c3ccc(N4CC[C@H](F)CC4=O)cc3OC[C@@H]12)c1ccc(Cl)s1")
7.33
>>> result_number("N=C(N)N1CCC[C@H](NC(=O)CN2CCCC[C@H](NS(=O)(=O)Cc3ccccc3)C2=O)C1O (some centres not stated)")
7.40
>>> result_number("CCN(C)Cc1ccc(C(=O)Nc2ccc(Cl)cc2C(=O)Nc2ccc(Cl)cn2)cc1")
7.92
>>> result_number("CCOC(=O)[C@]1(C)CCC[C@@]2(C)[C@@H]3CC[C@@]4(C)C[C@]3(CC[C@@H]21)C[C@H]4OCc1cn(-c2cccc3ccccc23)nn1")
5.31
>>> result_number("O=C(NCCCS(=O)(=O)c1ccc2cc(Cl)ccc2c1)C1CCN(c2ccncc2)CC1")
6.33
>>> result_number("C[N+]1(C)CCc2nc(C(=O)N3CCN(S(=O)(=O)c4ccc5cc(Cl)ccc5c4)CC3)sc2C1")
8.11
>>> result_number("Cc1nccc(N2CCC(C(=O)N3CC[C@@H](CNS(=O)(=O)/C=C/c4ccc(Cl)s4)C3)CC2)n1")
6.64
>>> result_number("Cc1c(C(=O)N2Cc3ccccc3C[C@H]2C(=O)Nc2ccc(N3CCOCC3=O)cc2)sc2ccc(Cl)cc12")
5.27
>>> result_number("COC(=O)C(Cc1cccc(C(=N)N)c1)C(/C=C/c1ccccc1)NC(=O)c1ccc(-c2ccccc2)cc1 (configuration not stated)")
6.96
>>> result_number("N=C(c1ccc(C(=O)Nc2ccccc2C(=O)Nc2ccc(Cl)cn2)cc1)N1CCC1")
8.10
>>> result_number("N=C(N)NCCC[C@H](NC(=O)[C@H](Cc1csc2ccccc12)NC(=O)[C@@H](Cc1ccccc1)NS(=O)(=O)Cc1ccccc1)C(=O)c1nccs1")
6.82
>>> result_number("CN1CCCN=C1c1ccc(C(=O)Nc2ccccc2C(=O)Nc2ccc(Cl)cn2)cc1")
7.11
>>> result_number("Cc1cc(CN(c2ccc(-c3ccccc3S(N)(=O)=O)cc2)S(C)(=O)=O)nn1-c1cccc(C(=N)N)c1")
5.41
>>> result_number("CC(=N)N1CCC(Oc2ccc(OCc3nc4cc(C(=N)N)ccc4n3CC(=O)NC(C)c3ccccc3)cc2)CC1 (configuration not stated)")
7.52
>>> result_number("N#Cc1c(Cl)cccc1Oc1ccc(S(=O)(=O)N2CCN(CC(=O)NC(CCCNC(=N)N)C(=O)c3nccs3)C(=O)C2)cc1 (configuration not stated)")
7.42
>>> result_number("Cc1cc(C(=O)Nc2ccc(C(=N)N3CCCCCC3)cc2F)n(-c2cc3ccccc3cc2F)n1")
7.30
>>> result_number("Cc1cc(C(=O)Nc2ccc(C(=N)N(C)Cc3ccccc3)cc2F)n(-c2cc3ccccc3cc2F)n1")
7.10
>>> result_number("N=C(N)c1ccc(CNC(=O)CN2C(=O)[C@H](NS(=O)(=O)Cc3ccccc3)CSc3ccc(CCC(=O)O)cc32)cc1")
5.69
>>> result_number("Cc1cc2cc(N/C(N[C@H]3CCCCN(CC(=O)N4CCCC4)C3=O)=C(/C#N)C(=O)N3CCC(C)CC3)ccc2o1")
7.24

###

Recorded IC50 for compounds tested on Coagulation factor X (Homo sapiens, UniProt P00742), drawn from a number of studies.
Threshold-based label: IC50 under 200 nM gives yes, IC50 not under 200 nM gives no.

>>> class_assignment("N=C(N)c1ccc(CNC(=O)[C@H](Cc2ccc(O)cc2)NC(=O)[C@@H](CC2CCCCC2)NCC(=O)O)cc1")
"no"
>>> class_assignment("CC(C)c1cc(-c2ccc3c(c2)[C@H](N)CO3)cc([C@@H]2CNc3cccc(CC(=O)O)c3O2)c1")
"no"
>>> class_assignment("CO[C@H]1O[C@H](COS(=O)(=O)O)[C@@H](O[C@@H]2O[C@@H](C(=O)O)[C@@H](O[C@@H]3O[C@H](COS(=O)(=O)O)[C@@H](O[C@@H]4O[C@H](C(=O)O)[C@@H](O[C@H]5O[C@H](COS(=O)(=O)O)[C@@H](O)[C@H](O)[C@H]5NS(=O)(=O)O)[C@H](O)[C@H]4O)[C@H](OS(=O)(=O)O)[C@H]3N)[C@H](O)[C@H]2OS(=O)(=O)O)[C@H](O)[C@H]1NS(=O)(=O)O")
"no"
>>> class_assignment("CN(C)c1ccc(CNC(=O)c2cc(NS(=O)(=O)Cc3ccccc3)ccc2Sc2ccccc2)cc1")
"no"
>>> class_assignment("O=C(Nc1ccc(Cl)cc1C(=O)Nc1ccc(Cl)cn1)c1ccc(-c2ccccc2N2CCCNCC2)cc1")
"yes"
>>> class_assignment("COc1ccc(NC(=O)c2ccc(C(=N)N(C)C)cc2F)c(C(=O)Nc2ccc(Cl)cn2)c1")
"yes"
